# Test system: EKVX NSCLC
# method.description: NCI tumour cell line growth inhibition, 48 h; in the data active = GI50 below about 0.43 µM; inactive = the rest
Give your call using only these classes: active, inactive

Study these solved cases before continuing.
compound=c1cc(N2CCCN(c3ccc(C4=NCCCN4)cc3)CC2)ccc1C1=NCCCN1 answer_label=inactive
compound=O=C1CC(=O)N(C(=O)c2nn(-c3ccc(Cl)cc3)cc2O)N1 answer_label=inactive
compound=COc1ccc(-c2cc(-c3ccc(Cl)cc3)nc(SCCCC(=O)NO)n2)cc1 answer_label=inactive

Q) Hi, sorry to bother you, what did the test record for "CC(C)[O-].CC(C)[O-].O=C1C=C([O-])C(=O)c2ccccc21.O=C1C=C([O-])C(=O)c2ccccc21.[Ti+4]" ?
A) inactive

Q) Hi, sorry to bother you, what did the test record for "CCN(Cc1ccccc1)c1ccc(CO)c(Cl)c1" ?
A) inactive

Q) Hi, sorry to bother you, what did the test record for "O=C1NC(=O)C(c2ccccc2Cl)=C1Nc1cc(Cl)c(O)c(Cl)c1" ?
A) inactive

Q) Hi, sorry to bother you, what did the test record for CC1=C(C(=O)Nc2ccc(Cl)c(Cl)c2)C(c2cccc(Cl)c2)NC(=O)N1 (stereo not given) ?
A) inactive

Q) Hi, sorry to bother you, what did the test record for N#CC1=C(N)Oc2c(ccc3ccccc23)C1c1ccccc1 (stereo not given) ?
A) active

Q) Hi, sorry to bother you, what did the test record for "COc1cc2ncn(-c3cc(O[C@@H](C)c4ccccc4Cl)c(C(N)=O)s3)c2cc1OC" ?
A) inactive

Q) Hi, sorry to bother you, what did the test record for "COc1ccc(/C(COc2ccc3c(=O)c(-c4ccccc4)coc3c2)=N\O)cc1" ?
A) inactive

Origin of values: PubChem BioAssay (NCI)
